# Tested on: Bacillus subtilis
# experiment-description: Antimicrobial activity against ceftriaxone-resistant Bacillus subtilis by spectrophotometry
# Type: functional
measurement-name: MIC (µg/mL)

- compound: "O=c1cc(CCl)oc(CN2CCC(O)(c3ccc(Cl)c(C(F)(F)F)c3)CC2)c1O"
  tgt: "Bacillus subtilis"
  measured: 2
- compound: "O=c1cc(CCl)oc(CN2CCN(C(c3ccccc3)c3ccc(Cl)cc3)CC2)c1O (stereo not given)"
  tgt: "Bacillus subtilis"
  measured: 2
- compound: "O=c1cc(CCl)oc(CN2CCN(Cc3ccc(Cl)c(Cl)c3)CC2)c1O"
  tgt: "Bacillus subtilis"
  measured: 2
- compound: "CC(=O)C1(c2ccccc2)CCN(Cc2oc(CCl)cc(=O)c2O)CC1"
  tgt: "Bacillus subtilis"
  measured: 2
- compound: "CC1(C)S[C@@H]2[C@H](NC(=O)[C@H](N)c3ccccc3)C(=O)N2[C@H]1C(=O)O"
  tgt: "Bacillus subtilis"
  measured: 0.5

----------
# experiment-description: Cytotoxicity against african green monkey Vero cells after 48 hrs
# Assay type: cell-based
# condition-details: chlorocebus sabaeus

- compound: "CC(C)(C)OC(=O)N1CCN(Cc2oc(CCl)cc(=O)c2O)CC1"
  MNTC at 48 h / µg/mL: 0.4
- compound: "O=c1cc(CCl)oc(CN2CCN(C(c3ccccc3)c3ccc(Cl)cc3)CC2)c1O (stereo not drawn)"
  MNTC at 48 h / µg/mL: 0.4
- compound: "CC(=O)C1(c2ccccc2)CCN(Cc2oc(CCl)cc(=O)c2O)CC1"
  MNTC at 48 h / µg/mL: 0.4
- compound: "O=c1cc(CCl)oc(CN2CCC(O)(c3ccc(Cl)c(C(F)(F)F)c3)CC2)c1O"
  MNTC at 48 h / µg/mL: 0.4
- compound: "O=c1cc(CCl)oc(CN2CCN(Cc3ccc(F)cc3)CC2)c1O"
  MNTC at 48 h / µg/mL: 0.4
- compound: "O=c1cc(CCl)oc(CN2CCC(O)(c3ccc(Br)cc3)CC2)c1O"
  MNTC at 48 h / µg/mL: 0.8
- compound: "CCOC(=O)C1=C[C@@H](OC(CC)CC)[C@H](NC(C)=O)[C@@H](N)C1 [OSELTAMIVIR]"
  MNTC at 48 h / µg/mL: 1.6
- compound: "O=c1cc(CCl)oc(CN2CCN(Cc3ccc(Cl)c(Cl)c3)CC2)c1O"
  MNTC at 48 h / µg/mL: 0.8

----------
# Test system: Staphylococcus aureus
# experiment-description: Antimicrobial activity against methicillin-resistant Staphylococcus aureus by spectrophotometry
# Assay type: functional
# MIC values compiled below

- molecule: "O=c1cc(CCl)oc(CN2CCN(Cc3ccc(Cl)c(Cl)c3)CC2)c1O"
  quantity-unit: "µg/mL"
  bound-sign: "="
  MIC: 128
- molecule: "CC(C)(C)OC(=O)N1CCN(Cc2oc(CCl)cc(=O)c2O)CC1"
  quantity-unit: "µg/mL"
  bound-sign: "="
  MIC: 128
- molecule: "O=c1cc(CCl)oc(CN2CCC(O)(c3ccc(Br)cc3)CC2)c1O"
  quantity-unit: "µg/mL"
  bound-sign: "="
  MIC: 64
- molecule: "C[C@H]1COc2c(N3CCN(C)CC3)c(F)cc3c(=O)c(C(=O)O)cn1c23.C[C@H]1COc2c(N3CCN(C)CC3)c(F)cc3c(=O)c(C(=O)O)cn1c23.O"
  quantity-unit: "µg/mL"
  bound-sign: "="
  MIC: 128
- molecule: "O=c1cc(CCl)oc(CN2CCN(Cc3ccc(F)cc3)CC2)c1O"
  quantity-unit: "µg/mL"
  bound-sign: "="
  MIC: 64
- molecule: "CC1COc2c(N3CCN(C)CC3)c(F)cc3c(=O)c(C(=O)O)cn1c23 (stereo not given)"
  quantity-unit: "µg/mL"
  bound-sign: "="
  MIC: 64
- molecule: "CC1(C)S[C@@H]2[C@H](NC(=O)[C@H](N)c3ccccc3)C(=O)N2[C@H]1C(=O)O"
  quantity-unit: "µg/mL"
  bound-sign: ">"
  MIC: 128
- molecule: "O=c1cc(CCl)oc(CN2CCC(O)(c3ccc(Cl)c(C(F)(F)F)c3)CC2)c1O"
  quantity-unit: "µg/mL"
  bound-sign: "="
  MIC: 64
- molecule: "O=c1cc(CCl)oc(CN2CCN(C(c3ccccc3)c3ccc(Cl)cc3)CC2)c1O (stereo not given)"
  quantity-unit: "µg/mL"
  bound-sign: "="
  MIC: 64
- molecule: "CC(=O)C1(c2ccccc2)CCN(Cc2oc(CCl)cc(=O)c2O)CC1"
  quantity-unit: "µg/mL"
  bound-sign: "="
  MIC: 128

----------
# Tested on: Proteus mirabilis
# experiment-description: Antimicrobial activity against Proteus mirabilis ATCC 7002 by spectrophotometry
# Format: functional
Below, each entry is listed alongside its reported MIC.
measurement-name: MIC

- compound: "O=c1cc(CCl)oc(CN2CCN(C(c3ccccc3)c3ccc(Cl)cc3)CC2)c1O (stereo not given)"
  tgt: "Proteus mirabilis"
  measurement-name: "MIC"
  measured: "8 mg/L"
- compound: "CC1COc2c(N3CCN(C)CC3)c(F)cc3c(=O)c(C(=O)O)cn1c23 (stereo not given)"
  tgt: "Proteus mirabilis"
  measurement-name: "MIC"
  measured: "< 0.12 mg/L"
- compound: "CC(=O)C1(c2ccccc2)CCN(Cc2oc(CCl)cc(=O)c2O)CC1"
  tgt: "Proteus mirabilis"
  measurement-name: "MIC"
  measured: "16 mg/L"
- compound: "O=c1cc(CCl)oc(CN2CCN(Cc3ccc(F)cc3)CC2)c1O"
  tgt: "Proteus mirabilis"
  measurement-name: "MIC"
  measured: "16 mg/L"
- compound: "C[C@H]1COc2c(N3CCN(C)CC3)c(F)cc3c(=O)c(C(=O)O)cn1c23.C[C@H]1COc2c(N3CCN(C)CC3)c(F)cc3c(=O)c(C(=O)O)cn1c23.O"
  tgt: "Proteus mirabilis"
  measurement-name: "MIC"
  measured: "< 0.12 mg/L"
- compound: "CC1(C)S[C@@H]2[C@H](NC(=O)[C@H](N)c3ccccc3)C(=O)N2[C@H]1C(=O)O"
  tgt: "Proteus mirabilis"
  measurement-name: "MIC"
  measured: "2 mg/L"
- compound: "O=c1cc(CCl)oc(CN2CCN(Cc3ccc(Cl)c(Cl)c3)CC2)c1O"
  tgt: "Proteus mirabilis"
  measurement-name: "MIC"
  measured: "16 mg/L"
- compound: "O=c1cc(CCl)oc(CN2CCC(O)(c3ccc(Br)cc3)CC2)c1O"
  tgt: "Proteus mirabilis"
  measurement-name: "MIC"
  measured: "8 mg/L"
- compound: "CC(C)(C)OC(=O)N1CCN(Cc2oc(CCl)cc(=O)c2O)CC1"
  tgt: "Proteus mirabilis"
  measurement-name: "MIC"
  measured: "16 mg/L"
- compound: "O=c1cc(CCl)oc(CN2CCC(O)(c3ccc(Cl)c(C(F)(F)F)c3)CC2)c1O"
  tgt: "Proteus mirabilis"
  measurement-name: "MIC"
  measured: "8 mg/L"

----------
# Tested on: Bacillus subtilis
# experiment-description: Antimicrobial activity against ceftriaxone-resistant Bacillus subtilis by spectrophotometry
# Format: functional
This section presents molecules with their documented MIC values.
measurement-name: MIC (µg/mL)

- structure-smiles-string: "O=c1cc(CCl)oc(CN2CCN(Cc3ccc(F)cc3)CC2)c1O"
  measurement-name: "MIC"
  measured: 64
- structure-smiles-string: "O=c1cc(CCl)oc(CN2CCC(O)(c3ccc(Br)cc3)CC2)c1O"
  measurement-name: "MIC"
  measured: 2
- structure-smiles-string: "CC(C)(C)OC(=O)N1CCN(Cc2oc(CCl)cc(=O)c2O)CC1"
  measurement-name: "MIC"
  measured: 2
